src = ChEMBL document CHEMBL4417631

# maps each entry to its pIC50
Target: UniProt Q5VWK5
Sequence (Q5VWK5 whole entry): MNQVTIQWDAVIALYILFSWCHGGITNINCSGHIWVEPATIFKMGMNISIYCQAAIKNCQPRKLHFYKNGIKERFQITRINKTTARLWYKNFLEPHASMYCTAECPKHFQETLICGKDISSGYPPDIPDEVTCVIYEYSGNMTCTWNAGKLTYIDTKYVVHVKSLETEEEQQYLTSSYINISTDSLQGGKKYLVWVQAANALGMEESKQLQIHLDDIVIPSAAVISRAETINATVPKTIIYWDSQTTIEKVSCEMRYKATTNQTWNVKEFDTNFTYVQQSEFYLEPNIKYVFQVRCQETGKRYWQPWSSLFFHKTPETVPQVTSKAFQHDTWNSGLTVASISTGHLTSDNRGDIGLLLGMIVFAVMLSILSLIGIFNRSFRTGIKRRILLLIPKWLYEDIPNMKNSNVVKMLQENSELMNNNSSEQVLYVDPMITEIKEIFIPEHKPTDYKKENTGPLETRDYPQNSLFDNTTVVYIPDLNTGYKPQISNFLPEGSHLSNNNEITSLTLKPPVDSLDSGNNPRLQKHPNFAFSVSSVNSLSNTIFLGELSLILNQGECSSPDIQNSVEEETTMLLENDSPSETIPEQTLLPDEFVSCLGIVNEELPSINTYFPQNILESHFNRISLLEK
Assay: Inhibition of interleukin-23 binding to human interleukin-23 receptor incubated for 2 hrs by competitive binding ELISA
pIC50: −log10 of the molar value.

The recorded pIC50 for CC(=O)N[C@@H](CS)C(=O)N[C@@H](CCC(N)=O)C(=O)N[C@H](C(=O)N[C@@H](Cc1c[nH]c2ccccc12)C(=O)N[C@@H](CCC(N)=O)C(=O)N[C@@H](CS)C(=O)N[C@@H](Cc1ccc(O)cc1)C(=O)N[C@@H](Cc1c[nH]c2ccccc12)C(=O)N[C@@H](CCCNC(=N)N)C(=O)N[C@@H](CCC(=O)O)C(=O)N[C@@H](CC(N)=O)C(=O)NCC(=O)NCCOCC(=O)N[C@H](CCCNC(=N)N)C(N)=O)[C@@H](C)O is > 6.30

The recorded pIC50 for CC(=O)N[C@@H](CS)C(=O)N(C)[C@@H](CCCCN)C(=O)N[C@H](C(=O)N[C@@H](Cc1c[nH]c2ccccc12)C(=O)N[C@@H](CCC(N)=O)C(=O)N[C@@H](CS)C(=O)N[C@@H](Cc1ccc(O)cc1)C(=O)N[C@@H](Cc1c[nH]c2ccccc12)C(=O)N[C@@H](CCCNC(=N)N)C(=O)N[C@H](C(=O)N[C@@H](Cc1ccccc1)C(=O)NCC(=O)NCCOCC(=O)N[C@H](CCCCN)C(N)=O)C(C)C)[C@@H](C)O is 7.10

The recorded pIC50 for CC(=O)NCCCC[C@H](NC(=O)[C@@](C)(NC(=O)[C@H](Cc1ccc2ccccc2c1)NC(=O)[C@H](Cc1ccc(OCCN)cc1)NC(=O)[C@@H]1CSCC[C@H](NC(C)=O)C(=O)N[C@@H](CCC(N)=O)C(=O)N[C@@H]([C@@H](C)O)C(=O)N[C@@H](Cc2c[nH]c3ccccc23)C(=O)N[C@@H](CCC(N)=O)C(=O)N1)C(C)C)C(=O)N[C@@H](CC(N)=O)C(=O)NCC(N)=O is > 8.00

The recorded pIC50 for CC(=O)N[C@@H](CS)C(=O)N[C@@H](CCC(N)=O)C(=O)N[C@H](C(=O)N[C@@H](Cc1c[nH]c2ccccc12)C(=O)N[C@@H](CCC(N)=O)C(=O)N[C@@H](CS)C(=O)N[C@@H](Cc1ccc(O)cc1)C(=O)N[C@@H](Cc1ccc(Cl)c(Cl)c1)C(=O)N[C@@H](CCCNC(=N)N)C(=O)N[C@H](C(=O)N[C@@H](CC(N)=O)C(=O)NCC(=O)NCCOCC(=O)N[C@H](CCCCN)C(N)=O)C(C)C)[C@@H](C)O is < 4.52

The recorded pIC50 for CC(=O)NC1CCC/C=C\CC(C(=O)N[C@@H](Cc2ccc(O)cc2)C(=O)N[C@@H](Cc2c[nH]c3ccccc23)C(=O)N[C@@H](CCCNC(=N)N)C(=O)N[C@@H](CCCCN)C(=O)N[C@@H](Cc2ccccc2)C(=O)NCC(=O)NCCOCC(=O)N[C@H](CCCCN)C(N)=O)NC(=O)[C@H](CCC(N)=O)NC(=O)[C@H](Cc2c[nH]c3ccccc23)NC(=O)[C@H]([C@@H](C)O)NC(=O)[C@H](CCCNC(=N)N)NC1=O (stereo not given in full) is 6.00 to 7.00

###

Molecular target: Interleukin-23 receptor (Homo sapiens, UniProt Q5VWK5)
Assay: Inhibition of interleukin-23 binding to human interleukin-23 receptor incubated for 2 hrs by competitive binding ELISA
pIC50: −log10 of the molar value.
Measured quantity: pIC50

C[C@@H](O)[C@H](NC(=O)[C@H](CCC(N)=O)NC(=O)[C@@H](N)CS)C(=O)N[C@@H](Cc1c[nH]c2ccccc12)C(=O)N[C@@H](CCC(N)=O)C(=O)N[C@@H](CS)C(=O)N[C@@H](Cc1ccc(O)cc1)C(=O)N1Cc2ccccc2C[C@H]1C(=O)N[C@@H](CCCN)C(=O)N[C@@H](CCCCN)C(=O)N[C@@H](Cc1ccccc1)C(=O)NCC(=O)NCCOCC(=O)N[C@H](CCCCN)C(N)=O    < 4.52

The recorded pIC50 for CC(=O)N[C@@H](CS)C(=O)N[C@@H](C)C(=O)N[C@@H](CC(=O)O)C(=O)N[C@@H](Cc1c[nH]c2ccccc12)C(=O)N[C@H](C(=O)N[C@@H](CS)C(=O)N[C@@H](Cc1ccc(O)cc1)C(=O)N[C@@H](Cc1c[nH]c2ccccc12)C(=O)N(C)[C@@H](Cc1cnc[nH]1)C(=O)N[C@H](C(=O)N[C@@H](Cc1ccccc1)C(=O)NCC(=O)NCCOCC(=O)N[C@H](CCCCN)C(N)=O)[C@@H](C)O)C(C)C is < 6.00

The recorded pIC50 for CC(=O)N[C@H]1CCSC[C@@H](C(=O)N[C@@H](Cc2ccc(C(N)=O)cc2)C(=O)N[C@@H](Cc2ccc3ccccc3c2)C(=O)NC(C)(C)C(=O)N[C@@H](CCC(=O)O)C(=O)N[C@@H](CC(N)=O)C(=O)NCC(N)=O)NC(=O)[C@H](CCC(N)=O)NC(=O)[C@H](Cc2c[nH]c3ccccc23)NC(=O)[C@H]([C@@H](C)O)NC(=O)[C@H](CCC(N)=O)NC1=O is 6.00 to 7.00

###

Target: Interleukin-23 receptor (Homo sapiens)
Experiment: Inhibition of interleukin-23 receptor in human natural killer cells assessed as reduction in IL23/IL18-induced IFNgamma production incubated for 20 to 24 hrs by ELISA
Assay type: cell-based
Measured quantity: IC50

COc1ccc(C[C@H](NC(=O)[C@@H](NC(=O)[C@H](CCC(N)=O)NC(=O)[C@H](Cc2c[nH]c3ccccc23)NC(=O)[C@@H](NC(=O)[C@H](CCC(N)=O)NC(=O)[C@@H](NC(C)=O)C(C)(C)S)[C@@H](C)O)C(C)(C)S)C(=O)N[C@@H](Cc2ccc3ccccc3c2)C(=O)N[C@@](C)(CCCCN)C(=O)N[C@@H](CCCCNC(C)=O)C(=O)N[C@@H](CC(N)=O)C(=O)N[C@@H](CC(N)=O)C(N)=O)cc1    < 10 nM

Shifting focus to the compound that follows.
The recorded IC50 for CC(=O)NCCCC[C@H](NC(=O)[C@](C)(CC(C)C)NC(=O)[C@H](Cc1ccc2ccccc2c1)NC(=O)[C@H](Cc1ccc(OCCN)cc1)NC(=O)[C@@H](NC(=O)[C@H](CCC(N)=O)NC(=O)[C@H](Cc1c[nH]c2ccccc12)NC(=O)[C@@H](NC(=O)[C@H](CCC(N)=O)NC(=O)[C@@H](NC(C)=O)C(C)(C)S)[C@@H](C)O)C(C)(C)S)C(=O)N[C@@H](CC(N)=O)C(=O)N[C@@H](CC(N)=O)C(N)=O is < 10 nM

###

# maps each entry to its pIC50
Target: UniProt:Q5VWK5
Assay: Inhibition of interleukin-23 binding to human interleukin-23 receptor incubated for 2 hrs by competitive binding ELISA
pIC50: −log10 of the molar value.

Examples from the recorded data:
CC(=O)N[C@@H](CS)C(=O)N[C@@H](CCC(N)=O)C(=O)N[C@H](C(=O)N[C@@H](Cc1c[nH]c2ccccc12)C(=O)N[C@@H](CCC(N)=O)C(=O)N[C@@H](CS)C(=O)N[C@H](Cc1ccc(O)cc1)C(=O)N[C@@H](Cc1c[nH]c2ccccc12)C(=O)N[C@@H](CCC(C)C)C(=O)N[C@@H](CCC(=O)O)C(=O)N[C@@H](CC(N)=O)C(=O)NCC(N)=O)[C@@H](C)O    < 4.52
CC(=O)NCCCC[C@](C)(NC(=O)[C@H](Cc1ccc2ccccc2c1)NC(=O)[C@H](Cc1ccc(OCCNC(C)=O)cc1)NC(=O)[C@@H](NC(=O)[C@H](CCC(N)=O)NC(=O)[C@H](Cc1c[nH]c2ccccc12)NC(=O)[C@@H](NC(=O)[C@H](CCC(N)=O)NC(=O)[C@@H](NC(C)=O)C(C)(C)S)[C@@H](C)O)C(C)(C)S)C(=O)N[C@@H](CCC(=O)O)C(=O)N[C@@H](CC(N)=O)C(=O)N[C@@H](C)C(N)=O    7.60 to 8.00

Shifting focus to the molecule that follows.
Lab entry: UniProt:Q5VWK5 assay, molecule CC(C)[C@H](NC(=O)[C@H](Cc1ccc(-c2ccccc2)cc1)NC(=O)[C@H](CC(=O)O)NC(=O)[C@H](C)NC(=O)[C@@H](N)CS)C(=O)N[C@@H](CS)C(=O)N[C@@H](Cc1ccc(O)cc1)C(=O)N[C@@H](Cc1c[nH]c2ccccc12)C(=O)N[C@@H](Cc1cnc[nH]1)C(=O)N[C@H](C(=O)N[C@@H](Cc1ccccc1)C(=O)NCC(N)=O)[C@@H](C)O , pIC50 = < 6.00
